- target: Fatty acid synthase (Homo sapiens, UniProt P49327)
- Sequence (P49327 whole entry, the tested form may be a part): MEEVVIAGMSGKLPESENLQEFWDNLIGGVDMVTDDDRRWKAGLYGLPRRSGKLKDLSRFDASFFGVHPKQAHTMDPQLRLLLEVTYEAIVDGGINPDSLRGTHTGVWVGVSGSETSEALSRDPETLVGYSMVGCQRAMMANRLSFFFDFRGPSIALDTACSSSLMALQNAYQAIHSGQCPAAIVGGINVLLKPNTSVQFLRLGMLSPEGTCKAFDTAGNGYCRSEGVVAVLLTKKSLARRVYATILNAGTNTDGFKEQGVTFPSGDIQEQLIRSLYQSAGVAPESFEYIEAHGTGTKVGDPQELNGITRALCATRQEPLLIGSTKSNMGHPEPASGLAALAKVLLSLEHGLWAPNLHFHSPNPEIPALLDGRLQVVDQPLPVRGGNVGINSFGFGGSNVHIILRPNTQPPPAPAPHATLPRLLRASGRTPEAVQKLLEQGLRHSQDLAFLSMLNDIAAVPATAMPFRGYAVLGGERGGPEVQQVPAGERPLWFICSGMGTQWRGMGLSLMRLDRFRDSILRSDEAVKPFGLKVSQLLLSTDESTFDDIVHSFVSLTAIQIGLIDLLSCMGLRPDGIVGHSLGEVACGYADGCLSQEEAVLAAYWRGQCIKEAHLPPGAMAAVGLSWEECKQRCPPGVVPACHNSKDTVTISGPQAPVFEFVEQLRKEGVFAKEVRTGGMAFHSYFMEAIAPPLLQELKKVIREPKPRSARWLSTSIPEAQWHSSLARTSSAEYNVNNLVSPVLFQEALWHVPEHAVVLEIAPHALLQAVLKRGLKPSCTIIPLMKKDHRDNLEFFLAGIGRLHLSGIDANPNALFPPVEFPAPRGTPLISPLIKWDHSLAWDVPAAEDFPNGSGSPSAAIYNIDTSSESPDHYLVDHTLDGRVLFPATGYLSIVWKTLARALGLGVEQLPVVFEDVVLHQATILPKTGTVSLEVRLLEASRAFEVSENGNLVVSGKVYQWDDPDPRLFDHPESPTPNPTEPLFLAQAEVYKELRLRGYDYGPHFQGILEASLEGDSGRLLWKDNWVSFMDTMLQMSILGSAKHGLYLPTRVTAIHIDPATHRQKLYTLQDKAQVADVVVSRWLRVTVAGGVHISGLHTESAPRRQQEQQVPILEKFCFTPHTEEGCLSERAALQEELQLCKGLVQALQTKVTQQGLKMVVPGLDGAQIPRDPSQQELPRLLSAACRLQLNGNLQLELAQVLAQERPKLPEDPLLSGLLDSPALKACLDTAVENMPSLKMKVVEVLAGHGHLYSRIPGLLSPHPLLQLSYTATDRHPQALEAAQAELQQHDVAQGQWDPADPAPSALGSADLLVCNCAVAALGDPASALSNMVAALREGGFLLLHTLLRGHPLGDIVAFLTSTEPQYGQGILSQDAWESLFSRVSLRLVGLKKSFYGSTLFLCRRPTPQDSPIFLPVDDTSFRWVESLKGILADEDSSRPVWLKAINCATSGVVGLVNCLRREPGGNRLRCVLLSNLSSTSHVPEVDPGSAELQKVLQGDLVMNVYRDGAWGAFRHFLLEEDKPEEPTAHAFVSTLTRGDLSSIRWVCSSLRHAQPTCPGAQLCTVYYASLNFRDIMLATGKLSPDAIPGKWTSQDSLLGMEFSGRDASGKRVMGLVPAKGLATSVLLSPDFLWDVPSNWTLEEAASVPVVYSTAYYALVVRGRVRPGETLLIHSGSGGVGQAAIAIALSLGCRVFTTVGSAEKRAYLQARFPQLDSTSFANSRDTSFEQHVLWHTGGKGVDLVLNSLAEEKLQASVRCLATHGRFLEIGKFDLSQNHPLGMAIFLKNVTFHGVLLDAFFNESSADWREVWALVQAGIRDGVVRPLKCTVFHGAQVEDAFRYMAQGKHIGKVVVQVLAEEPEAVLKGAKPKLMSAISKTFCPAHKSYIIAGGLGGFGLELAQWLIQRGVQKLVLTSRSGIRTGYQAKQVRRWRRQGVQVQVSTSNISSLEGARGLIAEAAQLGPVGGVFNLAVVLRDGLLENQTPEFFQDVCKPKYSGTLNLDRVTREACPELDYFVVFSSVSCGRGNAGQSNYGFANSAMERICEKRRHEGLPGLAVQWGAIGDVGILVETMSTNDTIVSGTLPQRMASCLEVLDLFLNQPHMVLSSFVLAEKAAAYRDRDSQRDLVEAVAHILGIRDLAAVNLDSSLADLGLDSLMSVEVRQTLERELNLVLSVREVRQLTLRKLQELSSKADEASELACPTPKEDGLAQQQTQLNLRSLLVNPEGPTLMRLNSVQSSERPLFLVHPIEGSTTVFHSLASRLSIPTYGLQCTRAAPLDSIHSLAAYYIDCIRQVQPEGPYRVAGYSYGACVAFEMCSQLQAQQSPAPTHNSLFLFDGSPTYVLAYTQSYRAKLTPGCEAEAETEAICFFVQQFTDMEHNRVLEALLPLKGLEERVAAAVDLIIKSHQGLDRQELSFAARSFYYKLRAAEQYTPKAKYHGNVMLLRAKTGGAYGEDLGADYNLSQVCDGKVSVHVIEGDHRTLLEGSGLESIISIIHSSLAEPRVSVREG
- method-description: FAS thioesterase domain inhibitors, dose response, biochemical, endpoint fluorescence intensity, uHTS hits (AID 624327);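 also: fluorescence from hydrolysis of an O-methyl fluorescein acyl ester substrate by the enzyme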
- Type: functional
Active and inactive are the calls of the source. Rule as the data show it: active = IC50 of 20 µM or less and inactive = more.
experimental-endpoint: IC50

Check out these entries, answers already filled in.
1) COC(=O)c1ccc(COc2cc([N+](=O)[O-])cc3cccnc23)o1 | 13.3 µM (active)
2) COc1ccc(NC(=O)Nc2cccc3c2O[C@H](CN(C)C(=O)NC2CCCCC2)[C@@H](C)CN([C@H](C)CO)C3=O)cc1 | 3.56 µM (active)
3) CCOC(=O)N1CCN(Cc2nc3ccc([N+](=O)[O-])cc3c(=O)n2-c2cccc(OC)c2)CC1 | 3.46 µM (active)

(Q) Complete the entry with IC50 for O=S(=O)(Nc1ccc(-c2csc(-c3ccccc3)n2)cc1)c1ccccc1
(A) 9.18 µM (active)

(Q) Complete the entry with IC50 for CCN(Cc1ccccc1)C(=O)COC(=O)c1cc(Cl)nc(Cl)c1
(A) 9.66 µM (active)

(Q) Complete the entry with IC50 for COc1ccc([N+](=O)[O-])cc1NC(=O)CCCOc1ccccc1
(A) 7.3 µM (active)

(Q) Complete the entry with IC50 for COc1ccc(NC(=O)c2[nH]cnc2C(=O)N[C@H](C)c2ccccc2)cc1
(A) 10.9 µM (active)

(Q) Complete the entry with IC50 for Cc1ccc(C(=O)N/C(=C\c2cccc([N+](=O)[O-])c2)C(=O)Nc2cccc(C(=O)O)c2)cc1
(A) 15.1 µM (active)
